target: Vascular endothelial growth factor receptor 2 (Homo sapiens, UniProt P35968); experiment: In Vitro Receptor Tyrosine Kinase Assay: These tests measure the ability of compounds to inhibit the enzymatic activity of recombinant human c-Met/HGF receptor and VEGF receptor enzymatic activity. A 1.3-kb cDNA corresponding to the intracellular domain of c-Met or c-Met IC (Genbank accession number NP000236-1 amino acid 1078 to 1337) is cloned into the BamHI/XhoI sites of the pBlueBacHis2A vector (Invitrogen) for the production of a histidine-tagged version of that enzyme. This construct is used to generate recombinant baculovirus using the Bac-N-Blue¿ system according to the manufacturer's instructions (Invitrogen). The c-Met IC protein is expressed in Hi-5 cells (Trichoplusia Ni) upon infection with recombinant baculovirus construct. Briefly, Hi-5 cells grown in suspension and maintained in serum-free medium (Sf900 II supplemented with gentamycin) at a cell density of about 2x10^6 cells/ml are infected with the above-mentioned viruses at a multiplicity of infection (MOI) of 0.2 during 72 hours at 27 C.
Sequence (P35968 whole entry, the tested form may be a part): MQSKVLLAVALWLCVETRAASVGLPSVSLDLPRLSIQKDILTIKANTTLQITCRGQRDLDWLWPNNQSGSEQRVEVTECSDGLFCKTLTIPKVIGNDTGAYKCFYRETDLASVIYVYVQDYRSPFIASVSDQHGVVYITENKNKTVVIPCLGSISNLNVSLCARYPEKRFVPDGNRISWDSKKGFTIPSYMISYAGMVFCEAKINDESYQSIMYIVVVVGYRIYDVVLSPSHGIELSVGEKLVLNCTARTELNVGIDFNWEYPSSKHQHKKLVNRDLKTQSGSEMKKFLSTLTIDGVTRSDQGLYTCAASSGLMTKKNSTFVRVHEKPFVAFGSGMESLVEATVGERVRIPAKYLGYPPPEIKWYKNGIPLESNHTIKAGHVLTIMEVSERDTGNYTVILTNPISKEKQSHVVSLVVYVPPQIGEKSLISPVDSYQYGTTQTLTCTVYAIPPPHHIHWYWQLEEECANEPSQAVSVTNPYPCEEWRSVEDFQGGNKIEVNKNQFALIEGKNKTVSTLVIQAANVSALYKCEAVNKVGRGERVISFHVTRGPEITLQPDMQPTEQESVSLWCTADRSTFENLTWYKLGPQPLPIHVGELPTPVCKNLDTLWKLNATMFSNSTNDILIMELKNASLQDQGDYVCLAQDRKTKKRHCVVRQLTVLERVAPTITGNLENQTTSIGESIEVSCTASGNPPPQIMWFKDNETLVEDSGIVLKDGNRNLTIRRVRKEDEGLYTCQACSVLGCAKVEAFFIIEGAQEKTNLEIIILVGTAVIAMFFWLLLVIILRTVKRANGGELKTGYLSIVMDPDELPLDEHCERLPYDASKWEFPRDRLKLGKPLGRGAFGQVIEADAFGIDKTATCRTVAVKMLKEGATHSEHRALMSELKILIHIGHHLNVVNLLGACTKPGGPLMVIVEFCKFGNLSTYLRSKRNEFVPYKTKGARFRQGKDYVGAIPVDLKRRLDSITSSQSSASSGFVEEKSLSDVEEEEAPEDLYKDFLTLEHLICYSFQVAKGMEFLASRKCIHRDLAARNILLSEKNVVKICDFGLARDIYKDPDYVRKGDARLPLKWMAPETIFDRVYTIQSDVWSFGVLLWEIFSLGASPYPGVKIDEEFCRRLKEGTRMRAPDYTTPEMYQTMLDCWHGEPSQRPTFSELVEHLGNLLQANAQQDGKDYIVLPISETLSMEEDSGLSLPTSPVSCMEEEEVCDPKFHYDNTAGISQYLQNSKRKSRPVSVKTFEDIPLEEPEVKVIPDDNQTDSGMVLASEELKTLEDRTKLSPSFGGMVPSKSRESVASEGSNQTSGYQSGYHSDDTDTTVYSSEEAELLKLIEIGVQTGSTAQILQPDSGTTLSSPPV
MEASURE_NAME: pIC50
The quantity pIC50 is defined as the negative base-10 logarithm of the molar concentration.

So, Cn1cc(-c2cc(Oc3ccc(NC(=O)N4CCN(c5ccc(F)cc5)C4=O)nc3)ccn2)cn1 ? Its pIC50 was 6.00
